# system tested: Somatostatin receptor type 1 (Homo sapiens, UniProt P30872)
# Sequence (P30872 whole entry): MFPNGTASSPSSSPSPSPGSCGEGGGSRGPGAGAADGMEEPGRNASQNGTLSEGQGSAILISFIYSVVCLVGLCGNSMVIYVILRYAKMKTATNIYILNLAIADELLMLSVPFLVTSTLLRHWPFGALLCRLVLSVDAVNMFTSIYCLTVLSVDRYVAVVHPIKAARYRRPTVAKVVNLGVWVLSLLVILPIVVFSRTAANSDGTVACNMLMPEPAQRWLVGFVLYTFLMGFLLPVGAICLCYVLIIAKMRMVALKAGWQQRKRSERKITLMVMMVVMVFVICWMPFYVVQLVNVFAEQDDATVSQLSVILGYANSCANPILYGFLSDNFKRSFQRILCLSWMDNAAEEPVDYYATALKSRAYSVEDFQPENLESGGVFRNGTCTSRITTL
# protocol text: Binding affinity towards human Somatostatin receptor type 1 (sst1) using Tyr11-[125I]-SRIF as radioligand was determined in CHO cells
Positions of bridges follow the written chain, without caps; N, C: chain ends. Residues, ends and D or L forms follow the SMILES beside them.
Would you mind telling me the reported Ki of each entry?
One number for each entry, in nM.

Ki of NCCCCCNC(=O)O[C@@H]1C[C@H]2C(=O)N[C@@H](Cc3ccccc3)C(=O)N[C@H](Cc3c[nH]c4ccccc34)C(=O)N[C@@H](CCCCN)C(=O)N[C@@H](Cc3ccc(OCc4ccccc4)cc3)C(=O)N[C@@H](Cc3ccccc3)C(=O)N2C1 on Somatostatin receptor type 1 (Homo sapiens, UniProt P30872)?
10

# context switch: different molecule, same Ki
Ki of C[C@H](N)C(=O)NCC(=O)N[C@H]1CSSC[C@@H](C(N)=O)NC(=O)[C@H](CO)NC(=O)[C@H]([C@@H](C)O)NC(=O)[C@H](Cc2ccccc2)NC(=O)[C@H]([C@@H](C)O)NC(=O)[C@H](CCCCN)NC(=O)[C@H](Cc2c[nH]c3ccccc23)NC(=O)[C@H](Cc2ccccc2)NC(=O)[C@H](C)NC(=O)[C@H](CC(N)=O)NC(=O)[C@H](CCCCN)NC1=O (H-AGCKNAFWKTFTSC-NH2; disulfide 3-14) on Somatostatin receptor type 1 (Homo sapiens, UniProt P30872)?
126
